test system: Leishmania donovani; assay: GSK_TCAKS: pIC50 Leishmania donovani Imaging: Infected Macrophages. Assay plates (384-well) were prepared by adding 250nL of compound to each well. For single shot assay, the final compound concentration was 5 uM. […] Automated image analysis was performed with a script developed on Acapella High Content Imaging and Analysis Software (PerkinElmer). Output: Percent of infected macrophage cells were reported for each well.; format: functional, organism-based, Homo sapiens; conditions: THP-1
Reported pIC50 values for a set of compounds
Answer as the number alone; pIC50 is minus log10 of concentration in mol/L.

Examples with answers:
Consider the compound `COCCn1c(-c2ccccc2)cnc1NCc1ccccc1OC` and give its measured pIC50. 5.20

Consider the compound `CCN(CC)c1nc(N(C)C)nc2c1CN(Cc1ccccc1)CC2` and give its measured pIC50. 5.20

Consider the compound `CC(C)c1cc(Nc2cc(Cc3ccccc3)nc(N[C@H]3CC[C@H](O)CC3)n2)n[nH]1` and give its measured pIC50. 7.20

Consider the compound `O=C(Nc1nc2ccccc2[nH]1)c1ccc2[nH]cnc2c1` and give its measured pIC50. 5.30

Consider the compound `Cc1cc(NC(=O)CC2CCCCC2)n(-c2nc3c(c(=O)[nH]2)CCC3)n1` and give its measured pIC50. 5.50

Consider the compound `CNc1cc(Cn2c(C(=O)c3cc(C)cc(Cl)c3)c(C(C)C)c(=O)[nH]c2=O)ccn1` and give its measured pIC50. 4.70

New cases:
Consider the compound `COc1ccc(NS(=O)(=O)c2cc(-c3cc(C)n[nH]3)ccc2C)cc1OC` and give its measured pIC50. 5.00

---

molecular target: Sterol 14-alpha demethylase (Trypanosoma cruzi (strain CL Brener)); experiment: GSK_TCAKS: pIC50 CYP51 from Trypanosoma cruzi.
Sequence (Q7Z1V1 whole entry): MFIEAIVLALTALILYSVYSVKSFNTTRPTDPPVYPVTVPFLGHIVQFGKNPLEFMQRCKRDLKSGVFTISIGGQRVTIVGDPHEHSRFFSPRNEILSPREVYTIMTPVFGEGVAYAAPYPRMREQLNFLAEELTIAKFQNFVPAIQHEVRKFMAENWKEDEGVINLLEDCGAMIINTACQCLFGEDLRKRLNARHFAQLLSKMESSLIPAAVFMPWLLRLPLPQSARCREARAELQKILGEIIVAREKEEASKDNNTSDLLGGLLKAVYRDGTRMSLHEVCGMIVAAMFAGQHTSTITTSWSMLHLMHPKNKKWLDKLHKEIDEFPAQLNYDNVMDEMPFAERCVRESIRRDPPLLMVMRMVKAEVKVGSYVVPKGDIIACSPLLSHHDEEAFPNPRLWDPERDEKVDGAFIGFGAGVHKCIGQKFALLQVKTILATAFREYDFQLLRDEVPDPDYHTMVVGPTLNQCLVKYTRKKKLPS
parameter: IC50

Examples with answers:
Consider the molecule Cc1nn(-c2nc3ccccc3s2)c2c1C(c1ccc(OCC(N)=O)cc1)SCC(=O)N2 (stereo unspecified) and give its measured IC50. > 100 µM

Consider the molecule `Clc1cc(Br)ccc1OCCCCn1ccnc1` and give its measured IC50. 0.0631 µM

Consider the molecule `COc1ccc2nccc([C@H](O)CN3CC[C@H](NC(=O)c4ccc(Br)cc4)[C@@H](O)C3)c2n1` and give its measured IC50. 6.31 µM

Consider the molecule `O=C(c1ccc(Cl)cc1)c1ccc(OC(=O)N2CCOCC2)cc1` and give its measured IC50. 39.8 µM

Consider the molecule `COc1ccc(-c2nc3ncccc3o2)cc1NC(=O)c1cccs1` and give its measured IC50. > 100 µM

Consider the molecule `Cc1ccccc1NS(=O)(=O)c1ccc2[nH]cc(C(=O)NC3CCCC3)c(=O)c2c1` and give its measured IC50. 12.6 µM

New cases:
Consider the molecule `COc1ccc(Nc2nc(-c3ccccn3)cs2)c(OC)c1` and give its measured IC50. 20 µM

---

system: Trypanosoma brucei brucei; assay: GSK_TCAKS: pIC50 Trypanosoma brucei viability assay using luminiscence. Assay plates (1536-well) were prepared. T. brucei cultures were harvested and counted in a CASY cell counter. A parasite suspension was prepared at a final concentration of 5 * 10^4 cells/mL in complete HMI9 medium and 6uL was dispensed to all wells containing compounds using a Multidrop Combi dispenser. 6uL of HMI9 media with 0.4% DMSO were dispensed to control columns. Plates were incubated for 24 h at 37C, 5% CO2 then tempered for 10 min at room temperature. ATP content was quantified by adding 4 uL of CellTiter-Glo Reagent (Promega) according to the manufacturer's instructions. Luminescence was measured using a ViewLux.; type: functional, organism-based; conditions: Lister 427, CASY
Reported pIC50 values for a set of compounds
Answer as the number alone; pIC50 is minus log10 of concentration in mol/L.

Examples with answers:
Consider the compound `CCc1cccc(CC)c1-n1c(SCC(=O)N2CC(=O)Nc3ccccc32)nnc1-c1cccnc1` and give its measured pIC50. 6.00

Consider the compound `C[C@@H](Oc1cc(-n2cnc3ccc(O[C@H]4CCNC4)cc32)sc1C(N)=O)c1ccccc1Cl` and give its measured pIC50. 6.10

Consider the compound `N#CN1CC[C@@H](NC(=O)Nc2ccccc2Oc2ccccc2)C1` and give its measured pIC50. 5.10

Consider the compound `CC(=O)Nc1ccc(Nc2nccc(-c3cnn4ncccc34)n2)cc1C(F)(F)F` and give its measured pIC50. 7.30

Continue with the next compound.
Consider the compound `N#Cc1c(Oc2cccc(Cl)c2)cccc1[N+](=O)[O-]` and give its measured pIC50. 8.30

---

test: GSK_TCAKS: pIC50 HepG2 human cell line viability assay using luminiscence. […] Seeding density was checked to ensure that new mono-layers were not more than 50% confluent at the time of harvesting. Cell suspension was added to 500 mL of the same medium at a final density of 1.2 * 10^5 cells/mL. This cell suspension was dispensed (25 uL, 3000 cells per well) into 384-well clear-bottom plates using a Multidrop Combi dispenser. Prior to addition of the cell suspension, the screening compounds (250 nL) were pre-dispensed into the plates with an Echo liquid handler. Plates were incubated for 48 h at 37C, 5% CO2. After incubation, plates equilibrated at room temperature for 30 min before proceeding to develop the luminescent signal. The signal developer, CellTiter-Glo Reagent, was allowed to equilibrate at room temperature for 30 min and added to the plates (25uL per well) using a Multidrop Combi dispenser. Plates were left for 10 min at room temperature for stabilization and then read using a ViewLux.; type: toxicity, cell-based
parameter: IC50 at 48 h (µM)
Report the figure in µM without appending any unit label.

Consider the compound `CC(=O)Nc1ccc(-c2cnc(N)c(-c3nc4ccc(F)cc4[nH]3)c2)cc1` and give its measured IC50 at 48 h. 10

Continue with the next compound.
Consider the compound `Oc1c(-c2nnc(CCc3ccccc3)[nH]2)ncc2cccnc12` and give its measured IC50 at 48 h. 39.8

---

Reported IC50 values for a set of compounds
molecular target: Sterol 14-alpha demethylase (Trypanosoma cruzi (strain CL Brener)); assay: GSK_TCAKS: pIC50 CYP51 from Trypanosoma cruzi.
Report the figure in µM without appending any unit label.

Consider the compound `Cc1noc(C)c1COc1cccc(C(=O)N=c2[nH]cccc2C)c1` and give its measured IC50. 50.1

New cases:
Consider the compound NCC(Cc1ccccc1)NC(=O)c1cnc(-c2c[nH]c3ncccc23)s1 (stereo unspecified) and give its measured IC50. 1

Consider the compound `COc1ccc2ncc(F)c(CCN3CC[C@@H](NC(=O)c4cc5c(s4)CCC5)[C@@H](O)C3)c2n1` and give its measured IC50. 1.26

Consider the compound `COc1ccc(-c2cnc(NC(=O)c3ccc(F)cc3)n2C)cc1` and give its measured IC50. 10

Consider the compound `COc1ccc(S(=O)(=O)Nc2ccc(C(=O)Nc3nc(-c4ccccn4)cs3)cc2)cc1` and give its measured IC50. 0.398

Consider the compound CC(c1ccc2c(c1)CCCC2)N(C)c1ncc2c(N)nc(N)nc2n1 (stereo unspecified) and give its measured IC50. 25.1

---

Reported pIC50 values for a set of compounds
tested on: NIH3T3; assay: GSK_TCAKS: pIC50 NIH 3T3 cell line viability assay using luminiscence. Tissue culture surface treated assay plates (1536-well) were used. […] The 100% cells survival control was determined exposing the host-cells to a 0.5% DMSO concentration, whereas the 100% toxicity control was achieved by seeding the cells in presence of Amphotericin B at 50uM. Plates were incubated for four days at 37C, 5% CO2. The assay readout was developed by addition of 5uL of CellTiter-Glo Reagent following the manufacturer's instructions. Luminiscence was measured using a ViewLux.; type: functional, cell-based; settings: Mus musculus, NIH3T3, 96 h
Answer as the number alone; pIC50 is minus log10 of concentration in mol/L.

Consider the compound CCC(c1ccc(F)cc1)n1cncc1-c1cnn(C)c1 (stereo not given) and give its measured pIC50. 4.60

Continue with the next compound.
Consider the compound COc1ccccc1C=CCN1C[C@H]2CCC[C@@H](C1)C2(O)c1cccnc1 (stereo not given in full) and give its measured pIC50. 4.50

---

Reported pIC50 values for a set of compounds
tested on: Trypanosoma cruzi; test: GSK_TCAKS: pIC50 Trypanosoma cruzi viability assay using beta-GAL activity. This assay was run at single shot at 5uM compound concentration per well. The biological reagents consisted of NIH-3T3 host cells and trypomastigotes parasitic cells; both cell types were set to a 3.3 * 10^5 cells/mL dilution in assay DMEM by means of a CASY cell counter device using a 60um capillary. 6 uL of the mixture were dispensed per well (about 1 * 10^3 host-cells and 1 * 10^3 parasites) with a Multidrop Combi dispenser. […] In all wells, the percentage of DMSO never exceeded 0.5%. Plates incubated for four days at 37C, 5% CO2. The substrate used for the assay fluorescence intensity (FLINT) readout was resorufin-beta-D-galactopiranoside (Sigma-Aldrich) at 5uM per well. It was diluted in PBS supplemented with the soft detergent Igepal (Fluka).; format: functional, organism-based, Mus musculus; conditions: Tulahuen, NIH3T3
Answer as the number alone; pIC50 is minus log10 of concentration in mol/L.

Consider the compound `COc1ccc(CN(C)Cc2ccncc2)cc1-c1ccc(S(=O)(=O)NC2CCC2)s1` and give its measured pIC50. 6.30

Consider the compound `COc1ccc(-c2cnc(NC(=O)c3cc(-c4ccccn4)n[nH]3)n2C)cc1` and give its measured pIC50. 5.45

Consider the compound `Cc1nc2c(-c3nc(-c4ccccc4N)n[nH]3)cccn2c1C` and give its measured pIC50. 5.35

Consider the compound `CCc1cccc(CC)c1-n1c(SCC(=O)NC(=O)NCc2ccco2)nnc1-c1cccnc1` and give its measured pIC50. 4.90

Consider the compound CC(c1ccccn1)N(C)Cc1nc2ccccc2n1C(C)C (stereo not drawn) and give its measured pIC50. 5.80

Consider the compound `Cc1cc(Br)sc1CNCCCNc1cc(=O)c2ccccc2[nH]1` and give its measured pIC50. 5.80

Consider the compound `O=C(NCCc1n[nH]c(-c2ccc(F)c(F)c2)n1)C1CCCCC1` and give its measured pIC50. 5.70

Consider the compound `Fc1ccc(Nc2nc(-c3ccccn3)cs2)cc1` and give its measured pIC50. 5.60

New cases:
Consider the compound `Cc1cccc(NS(=O)(=O)c2ccc3c(c2)C(=O)c2cc(S(=O)(=O)Nc4cccc(C)c4C)ccc2-3)c1C` and give its measured pIC50. 6.40

Consider the compound `Cc1nc(N2CCC(C(=O)N3CCC(O)(c4cccnc4)CC3)CC2)nc2ccc(C(C)C)cc12` and give its measured pIC50. 5.80

Consider the compound O=S(=O)(NCC(c1cccnc1)N1CCN(c2ccc(F)cc2)CC1)c1cccs1 (stereo not drawn) and give its measured pIC50. 6.80

Consider the compound `CCN(CC)c1nc(Nc2ccncc2)nc2ccccc12` and give its measured pIC50. 6.90

Consider the compound CC(Cn1ccnc1)NC(=O)C1CC1c1cccc(Cl)c1Cl (stereo not drawn) and give its measured pIC50. 6.85

Values from ChEMBL document CHEMBL3430912
